target: UniProt:B3SAW0; test: whole-cell patch clamp, agonist-evoked currents in CHO-K1 cells; type: cell-based; conditions: wildtype; ligand 0.30 mM
Sequence (B3SAW0 entry or part of it): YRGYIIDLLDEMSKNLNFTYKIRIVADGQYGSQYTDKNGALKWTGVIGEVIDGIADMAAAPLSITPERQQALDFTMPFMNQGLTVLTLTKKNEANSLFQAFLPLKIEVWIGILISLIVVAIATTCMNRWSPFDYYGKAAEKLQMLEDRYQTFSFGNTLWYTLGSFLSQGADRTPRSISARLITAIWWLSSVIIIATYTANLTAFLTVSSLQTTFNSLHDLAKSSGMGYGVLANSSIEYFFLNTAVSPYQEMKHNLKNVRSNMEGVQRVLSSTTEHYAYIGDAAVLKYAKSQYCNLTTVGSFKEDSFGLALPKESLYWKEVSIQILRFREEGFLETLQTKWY
normalized current (dose response), Avg reference
Answer with a bare number; do not write a unit.

// solved cases for normalized current (dose response), Avg follow
Prompt: Consider the molecule shown here: N[C@@H](CO)C(=O)O [L-serine] What is its recorded normalized current (dose response), Avg?
Response: 0.95

Prompt: Item under review: C[C@H](N)C(=O)O [alanine, L-alanine] . Reported normalized current (dose response), Avg?
Response: 1.00

Prompt: What value of normalized current (dose response), Avg has been reported for the following molecule? CC(C)[C@H](N)C(=O)O [valine]
Response: 0.0282

Next:
Prompt: Field request: normalized current (dose response), Avg | item: N[C@H](CO)C(=O)O [D-serine]
Response: 0.78

Source of measurements: paper PMC12226733
